Entries annotated with measured relative viability
# System: NCI-H520
# assay info: relative viability (nuclei count vs DMSO), 5 days (fraction); higher = more cells survive
# cond: first compound 0.03162 µM
# print the numeric value only

Worked examples follow.
CCN(CC)CCCCNc1ncc2cc(-c3cc(OC)cc(OC)c3)c(NC(=O)NC(C)(C)C)nc2n1 + Cc1cc(Nc2cc(N3CCN(C)CC3)nc(Sc3ccc(NC(=O)C4CC4)cc3)n2)n[nH]1 [Tozasertib] (partner 0.1 µM)    0.452
CCN(CC)CCCCNc1ncc2cc(-c3cc(OC)cc(OC)c3)c(NC(=O)NC(C)(C)C)nc2n1 + C[C@]1(O)C[C@@H](c2nc(-c3ccc4ccc(-c5ccccc5)nc4c3)c3c(N)nccn32)C1 [Linsitinib] (partner 1 µM)    1.02
O=c1cc(N2CCOCC2)oc2c(-c3cccc4c3sc3ccccc34)cccc12 + COc1cc2c(Oc3ccc(NC(=O)C4(C(=O)Nc5ccc(F)cc5)CC4)cc3F)ccnc2cc1OCCCN1CCOCC1 [Foretinib] (partner 0.25 µM)    0.86
CCN(CC)CCCCNc1ncc2cc(-c3cc(OC)cc(OC)c3)c(NC(=O)NC(C)(C)C)nc2n1 + CS(=O)(=O)CCNCc1ccc(-c2ccc3ncnc(Nc4ccc(OCc5cccc(F)c5)c(Cl)c4)c3c2)o1 [Lapatinib] (partner 2 µM)    0.946

Moving on to another compound below.
In: Quick one: relative viability of O=c1cc(N2CCOCC2)oc2c(-c3cccc4c3sc3ccccc34)cccc12 + Nc1nc2[nH]cc(CCc3ccc(C(=O)N[C@@H](CCC(=O)O)C(=O)O)cc3)c2c(=O)[nH]1 [Pemetrexed] (partner 0.2 µM) ?
Out: 0.657

----------
Entries annotated with measured relative viability
# System: H3255
# assay info: relative viability (nuclei count vs DMSO), 5 days (fraction); higher = more cells survive
# cond: first compound 0.01 µM
# print the numeric value only

CCN(CC)CCCCNc1ncc2cc(-c3cc(OC)cc(OC)c3)c(NC(=O)NC(C)(C)C)nc2n1 + C[C@]1(O)C[C@@H](c2nc(-c3ccc4ccc(-c5ccccc5)nc4c3)c3c(N)nccn32)C1 [Linsitinib] (partner 1 µM)    1.02

Moving on to another molecule below.
In: Quick one: relative viability of CCN(CC)CCCCNc1ncc2cc(-c3cc(OC)cc(OC)c3)c(NC(=O)NC(C)(C)C)nc2n1 + C[C@@H](Oc1cc(-c2cnn(C3CCNCC3)c2)cnc1N)c1c(Cl)ccc(F)c1Cl [Crizotinib] (partner 1 µM) ?
Out: 0.936

----------
# System: NCI-H1395
# assay info: relative viability (nuclei count vs DMSO), 5 days (fraction); higher = more cells survive
# cond: first compound 0.8 µM
Please assign Criterion not met whenever relative viability is at or above 1, and Criterion met whenever it is below.

Worked cases, answers included:
COc1nc(C)cnc1NS(=O)(=O)c1cccnc1-c1ccc(-c2nnco2)cc1 [Zibotentan] + C[C@]1(O)C[C@@H](c2nc(-c3ccc4ccc(-c5ccccc5)nc4c3)c3c(N)nccn32)C1 [Linsitinib] (partner 1 µM)    Criterion not met
O=c1cc(-c2cccc3c2Sc2ccccc2S3)oc(N2CCOCC2)c1 + Nc1nc2[nH]cc(CCc3ccc(C(=O)N[C@@H](CCC(=O)O)C(=O)O)cc3)c2c(=O)[nH]1 [Pemetrexed] (partner 0.2 µM)    Criterion met
O=c1cc(-c2cccc3c2Sc2ccccc2S3)oc(N2CCOCC2)c1 + Cc1nc(NC(=O)N2CCC[C@H]2C(N)=O)sc1-c1ccnc(C(C)(C)C(F)(F)F)c1 [Alpelisib] (partner 2 µM)    Criterion not met

In: Is relative viability of O=c1cc(-c2cccc3c2Sc2ccccc2S3)oc(N2CCOCC2)c1 + CC(=O)Nc1cccc(-n2c(=O)n(C3CC3)c(=O)c3c(Nc4ccc(I)cc4F)n(C)c(=O)c(C)c32)c1 [Trametinib] (partner 0.02 µM) strictly below 1?
Out: Criterion not met
